target: OSBP-Myc-His (Homo sapiens, UniProt P22059); assay: [3H]25-OHC charcoal-dextran binding assay, wild-type OSBP-Myc-His
Sequence (P22059 whole entry): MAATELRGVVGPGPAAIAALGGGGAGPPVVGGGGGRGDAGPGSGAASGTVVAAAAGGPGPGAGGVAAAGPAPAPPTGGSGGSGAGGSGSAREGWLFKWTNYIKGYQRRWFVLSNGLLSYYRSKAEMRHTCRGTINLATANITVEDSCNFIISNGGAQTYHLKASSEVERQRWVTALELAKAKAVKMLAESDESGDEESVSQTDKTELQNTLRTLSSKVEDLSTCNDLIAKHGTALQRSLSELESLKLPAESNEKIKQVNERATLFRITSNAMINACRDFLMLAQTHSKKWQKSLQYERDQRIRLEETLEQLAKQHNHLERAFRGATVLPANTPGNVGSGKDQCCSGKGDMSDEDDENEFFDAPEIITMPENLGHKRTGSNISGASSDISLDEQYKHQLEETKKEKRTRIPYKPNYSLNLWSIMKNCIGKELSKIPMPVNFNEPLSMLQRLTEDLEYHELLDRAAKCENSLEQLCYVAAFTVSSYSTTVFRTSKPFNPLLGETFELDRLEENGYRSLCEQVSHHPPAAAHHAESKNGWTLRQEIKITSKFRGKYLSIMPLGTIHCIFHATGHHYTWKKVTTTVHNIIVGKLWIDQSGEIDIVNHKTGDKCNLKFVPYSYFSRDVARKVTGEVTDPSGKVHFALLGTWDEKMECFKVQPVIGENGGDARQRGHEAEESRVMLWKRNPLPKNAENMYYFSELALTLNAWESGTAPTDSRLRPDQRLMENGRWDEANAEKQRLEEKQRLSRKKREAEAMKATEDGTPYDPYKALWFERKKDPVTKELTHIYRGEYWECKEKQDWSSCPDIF
Metric Name: pKi
The meaning of pKi here: minus log10 of the concentration in molar units.

*Q* Return reported pKi; argument: CC1C2C(CC3C4CCC5Cc6nc7c(nc6CC5(C)C4CC(O)C32C)CC2CC(O)C3C4=CC5OC6(CCC(C)(O)CO6)C(C)C5(O)C4(C)C(O)CC3C2(C)C7)OC12CCC(C)(C)O2 (stereo not shown) [ritterazine B]
*A* 7.55

* * *

target: ORP4L-Myc-His (Homo sapiens); experiment: [3H]25-OHC charcoal-dextran binding assay, ORP4L-Myc-His
Sequence (Q969R2 whole entry): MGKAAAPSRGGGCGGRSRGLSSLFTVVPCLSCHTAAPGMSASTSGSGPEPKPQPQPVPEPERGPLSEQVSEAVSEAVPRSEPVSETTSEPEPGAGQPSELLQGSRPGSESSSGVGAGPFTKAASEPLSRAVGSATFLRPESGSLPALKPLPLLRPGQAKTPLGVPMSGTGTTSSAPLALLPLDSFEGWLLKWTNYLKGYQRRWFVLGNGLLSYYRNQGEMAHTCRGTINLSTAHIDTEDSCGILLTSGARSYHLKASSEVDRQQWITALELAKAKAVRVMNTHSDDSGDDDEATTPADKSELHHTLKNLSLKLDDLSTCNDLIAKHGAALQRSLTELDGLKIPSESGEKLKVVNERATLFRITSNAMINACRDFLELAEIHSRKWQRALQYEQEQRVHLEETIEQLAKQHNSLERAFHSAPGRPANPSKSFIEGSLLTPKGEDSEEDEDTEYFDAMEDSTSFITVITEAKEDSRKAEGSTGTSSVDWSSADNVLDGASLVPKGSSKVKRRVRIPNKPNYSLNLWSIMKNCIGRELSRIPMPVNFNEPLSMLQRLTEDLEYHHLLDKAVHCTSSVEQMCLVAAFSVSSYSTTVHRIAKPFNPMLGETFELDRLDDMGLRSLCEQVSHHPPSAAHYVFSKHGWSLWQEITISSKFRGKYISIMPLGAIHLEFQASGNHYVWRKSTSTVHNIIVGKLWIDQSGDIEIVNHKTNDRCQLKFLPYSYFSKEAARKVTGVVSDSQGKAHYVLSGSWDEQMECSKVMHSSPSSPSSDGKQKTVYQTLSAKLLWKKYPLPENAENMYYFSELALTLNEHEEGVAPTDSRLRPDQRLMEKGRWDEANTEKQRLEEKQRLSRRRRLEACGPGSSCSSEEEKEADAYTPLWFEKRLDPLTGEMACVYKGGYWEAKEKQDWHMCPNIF
pKi: −log10 of the molar value.
Metric Name: pKi

*Q* Return reported pKi; argument: CC1C2C(CC3C4CCC5Cc6nc7c(nc6CC5(C)C4CC(O)C32C)CC2CC(O)C3C4=CC5OC6(CCC(C)(O)CO6)C(C)C5(O)C4(C)C(O)CC3C2(C)C7)OC12CCC(C)(C)O2 (stereo not shown)
*A* < 6.44
